# Test system: Escherichia coli
# test.name: Inhibition of Escherichia coli MurA using PEP as substrate assessed as inorganic phosphate release at 25 uM preincubated for 10 mins measured after 60 mins […]
The source made the active and inactive calls. No rule for the calls is given here.
readout.label: inhibition

Some compounds with known inhibition results, for comparison:
compound: O=C1NC(=S)N/C1=C\c1c[nH]c2ccccc12
measured.result: 77%
--
compound: O=C1NC(=O)/C(=C/C=C/c2ccco2)S1
measured.result: 24%
--
compound: COc1ccc(/C=C2\NC(=S)NC2=O)cc1OC
measured.result: 18%
--
compound: O=C1NC(=S)N[C@H]1Cc1ccc(O)cc1
measured.result: inactive
--
compound: CCC/C=C/C1NC(=S)NC1=O (stereo unspecified)
measured.result: 77%
--
compound: O=C1NC(=O)/C(=C/c2ccc(O)c(O)c2)N1
measured.result: 70%
--
compound: O=C1NC(=S)S/C1=C\c1cccs1
measured.result: inactive
--
compound: O=C1NC(=S)S/C1=C\c1c[nH]c2ccccc12
measured.result: inactive
--
compound: O=C1NC(=O)/C(=C/c2ccc(O)cc2)N1
measured.result: inactive
--
compound: O=C1NC(=O)/C(=C/c2sccc2Cl)N1
measured.result: inactive

query: Item `COc1cccc(/C=C2\NC(=S)NC2=O)c1` with Escherichia coli - inhibition?
result: 10%

query: What would you report for `CC(=O)n1cc(/C=C2\NC(=S)NC2=O)c2ccccc21` ?
result: 13%

query: What would you report for `CC(=O)N1C(=S)NC(=O)[C@@H]1CCC(N)=O` ?
result: inactive

query: What would you report for `Cc1ccc(/C=C2\NC(=O)NC2=O)cc1` ?
result: inactive
